# target: T1, human NTB-A (human, UniProt Q96DU3 22-332)
# T1 construct: Endogenous NTB-A on antigen-positive Ramos cells (also on MM.1R, WIL2-S and Raji cells and normal human T and B lymphocytes); also called SLAMF6; human NTB-A isoform-1
# T1 sequence: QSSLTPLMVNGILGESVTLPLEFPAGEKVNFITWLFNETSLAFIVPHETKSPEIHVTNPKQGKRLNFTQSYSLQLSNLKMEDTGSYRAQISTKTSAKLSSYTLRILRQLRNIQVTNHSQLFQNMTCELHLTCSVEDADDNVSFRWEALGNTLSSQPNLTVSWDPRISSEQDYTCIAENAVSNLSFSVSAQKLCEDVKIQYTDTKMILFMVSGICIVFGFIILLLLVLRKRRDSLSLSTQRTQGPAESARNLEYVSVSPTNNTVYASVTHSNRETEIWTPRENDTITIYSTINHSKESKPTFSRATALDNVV
# assay.name: competition flow cytometry on Ramos cells; competitor 5 nM mouse 20F3-Alexa Fluor 647
Recorded EC50 by entry
Provide the reading as a plain figure in nM.

- binder: "humanized 20F3 HELD (antibody, V domains shown, Humanized heavy chain HE paired with humanized light chain LD) VH: QIQLVQSGSELKKPGASVKVSCKASGYTFTNYGMNWVKQAPGQDLKWMGWINTYSGEPRYADDFKGRFAFSLDKSVNTAYLQISSLKAEDTAVYFCARDYGRWYFDVWGQGTTVTVSS VL: QIVLSQSPATLSLSPGERATMSCRASSSVSHMHWYQQKPGQAPRPWIYATSNLASGVPARFSGSGSGTDYTLTISSLEPEDFAVYYCQQWSSTPRTFGGGTKVEIKR"
  value.measured: 2
- binder: "humanized 20F3 HBLB (antibody, V domains shown, Humanized heavy chain HB paired with humanized light chain LB) VH: QIQLVQSGSELKKPGASVKVSCKASGYTFTNYGMNWVRQAPGQGLEWMGWINTYSGEPRYADDFKGRFVFSLDKSVSTAYLQISSLKAEDTAVYYCARDYGRWYFDVWGQGTTVTVSS VL: EIVLTQSPATLSLSPGERATLSCRASSSVSHMHWYQQKPGQAPRPWIYATSNLASGIPARFSGSGSGTDYTLTISSLEPEDFAVYYCQQWSSTPRTFGGGTKVEIKR"
  value.measured: 6

Request the reported EC50 associated with humanized 20F3 HALD (antibody, V domains shown, Humanized heavy chain HA paired with humanized light chain LD) VH: QVQLVQSGSELKKPGASVKVSCKASGYTFTNYGMNWVRQAPGQGLEWMGWINTYSGEPRYADDFKGRFVFSLDTSVSTAYLQISSLKAEDTAVYYCARDYGRWYFDVWGQGTTVTVSS VL: QIVLSQSPATLSLSPGERATMSCRASSSVSHMHWYQQKPGQAPRPWIYATSNLASGVPARFSGSGSGTDYTLTISSLEPEDFAVYYCQQWSSTPRTFGGGTKVEIKR
12
